Each item that follows carries a reported log10 IC50.
assay: Antiproliferative activity against tamoxifen-resistant human LCC2 cells assessed as inhibition of cell growth by CCK8 assay; assay type: functional, cell-based
QUANTITY: log10 IC50 (log10 of the value in µM)

1) C/C(=N\Nc1nc2ccccc2n1CCNC(=O)CN1CCC2(CC1)CCN(c1ccc3c(c1)C(=O)N(C1CCC(=O)NC1=O)C3=O)CC2)c1ccccn1 (stereo unspecified) : 0.90
2) C/C(=N\Nc1nc2ccccc2n1CC1CCN(c2ccc3c(c2)C(=O)N(C2CCC(=O)NC2=O)C3=O)CC1)c1ccccn1 (stereo unspecified) : 0.71
3) C/C(=N\Nc1nc2ccccc2n1CCNC(=O)C1CC2(CCN(c3ccc4c(c3)C(=O)N(C3CCC(=O)NC3=O)C4=O)CC2)C1)c1ccccn1 (stereo unspecified) : 0.94
4) C/C(=N\Nc1nc2ccccc2n1CC1CCN(C(=O)CCCCCCCNc2cccc3c2CN(C2CCC(=O)NC2=O)C3=O)CC1)c1ccccn1 (stereo unspecified) : 0.70
5) CC/C(=C(\c1ccc(O)cc1)c1ccc(OCCN(C)C)cc1)c1ccccc1 : 1.42
6) C/C(=N\Nc1nc2ccccc2n1CCNC(=O)CCCCCCCN[C@H](C(=O)N1C[C@H](O)C[C@H]1C(=O)N[C@@H](C)c1ccc(-c2scnc2C)cc1)C(C)(C)C)c1ccccn1 : 0.29
7) C/C(=N\Nc1nc2ccccc2n1CCNC(=O)CN1CCC(CN2CCN(c3ccc4c(c3)C(=O)N(C3CCC(=O)NC3=O)C4=O)CC2)CC1)c1ccccn1 (stereo unspecified) : 0.94
8) C/C(=N\Nc1nc2ccccc2n1C1CN(c2ccc3c(c2)C(=O)N(C2CCC(=O)NC2=O)C3=O)C1)c1ccccn1 (stereo unspecified) : 0.69
9) C/C(=N\Nc1nc2ccccc2n1CC1CN(c2ccc3c(c2)C(=O)N(C2CCC(=O)NC2=O)C3=O)C1)c1ccccn1 (stereo unspecified) : 0.49
10) C/C(=N\Nc1nc2ccccc2n1C1CN(c2cccc3c2C(=O)N(C2CCC(=O)NC2=O)C3=O)C1)c1ccccn1 (stereo unspecified) : 0.53
11) C/C(=N\Nc1nc2ccccc2n1C1CN(C2CCN(c3cccc4c3C(=O)N(C3CCC(=O)NC3=O)C4=O)CC2)C1)c1ccccn1 (stereo unspecified) : -0.46
12) C/C(=N\Nc1nc2ccccc2n1CCNC(=O)CCCCCCCCCCN[C@H](C(=O)N1C[C@H](O)C[C@H]1C(=O)N[C@@H](C)c1ccc(-c2scnc2C)cc1)C(C)(C)C)c1ccccn1 : 0.03
13) C/C(=N\Nc1nc2ccccc2n1C)c1ccccn1 : -0.22
14) C/C(=N\Nc1nc2ccccc2n1CCNC(=O)CCCCCCCCCN[C@H](C(=O)N1C[C@H](O)C[C@H]1C(=O)N[C@@H](C)c1ccc(-c2scnc2C)cc1)C(C)(C)C)c1ccccn1 : 0.05
15) C/C(=N\Nc1nc2ccccc2n1CC1CN(c2cccc3c2C(=O)N(C2CCC(=O)NC2=O)C3=O)C1)c1ccccn1 (stereo unspecified) : 0.80
16) C/C(=N\Nc1nc2ccccc2n1CCNC(=O)CCCCCCCCN[C@H](C(=O)N1C[C@H](O)C[C@H]1C(=O)N[C@@H](C)c1ccc(-c2scnc2C)cc1)C(C)(C)C)c1ccccn1 : -0.12
